Ref: paper PMC7101335

EXPERIMENTAL DETAILS: Caco-2 bidirectional permeability assay
Type: in vitro ADME, human
MEASUREMENT PARAMETERS: human, Caco-2; basolateral to apical, two hours
REPORTED METRIC: Papp B→A at 2 h (×10⁻⁶ cm/s)

• CNC(=C[N+](=O)[O-])NCCSCc1ccc(CN(C)C)o1 = 0.942
• CCCCCCCCCCN(Cc1cccc2ccccc12)C(=O)[C@@H](N)CCCCN = 3.26
• CC(=O)CC(c1ccccc1)c1c(O)c2ccccc2oc1=O (stereo not drawn) = 19.6

====

Overview of recorded MIC for various compounds
Test system: Clostridium difficile
EXPERIMENTAL DETAILS: Broth microdilution MIC against Clostridium difficile strains
Format: cell-based
MEASUREMENT PARAMETERS: Clostridioides difficile, C. difficile P8 (NR-32888); read-out: Minimum inhibitory concentration
REPORTED METRIC: MIC (µg/mL)

• CCCCCCCCCCN(Cc1cccc2ccccc12)C(=O)[C@@H](N)CCCCN = 1
• CCCCCCCCN(Cc1cccc2ccccc12)C(=O)[C@@H](N)CCCCN = 8
• Cc1ncc([N+](=O)[O-])n1CCO [Metronidazole, reference compound] = 0.125
• CCCCCCCCCCCCN(Cc1cccc2ccccc12)C(=O)[C@@H](N)CCCCN = 4
• CCCCCCN(Cc1cccc2ccccc12)C(=O)[C@@H](N)CCCCN = 64
